Origin of measurements: patent US20080221132A1

Tested on: Lung_H292
ASSAY INFO: Cell proliferation assay (ATPlite), H292
Format: cell-based
REPORTED CONDITIONS: Homo sapiens, NCI-H292; TABLE C; 72 hours, 0.5% fetal bovine serum, ATP content; read-out: IC50 grading, Lung_H292
pIC50: −log10 of the molar value.

COMPOUND | pIC50
C#Cc1cccc(Nc2ncnc3cc(OC)c(OCCCCCCC(=O)NO)cc23)c1 [Compound 12] | > 7.00

* * *

Tested on: Lung_HCC827
ASSAY INFO: Cell proliferation assay (ATPlite), HCC827
Type: cell-based
REPORTED CONDITIONS: Homo sapiens, TABLE C, 72 hours, 0.5% fetal bovine serum, ATP content, read-out: IC50 grading, Lung_HCC827

SMI | IC50
C#Cc1cccc(Nc2ncnc3cc(OC)c(NC(=O)CCCCCCC(=O)NO)cc23)c1 | 100 to 1000 nM
